Data provenance: paper PMC7251097

Biological target: His6-AspH315–758 (human aspartate/asparagine-β-hydroxylase, AspH) (Homo sapiens)
Construct: N-Terminally His6-tagged human AspH315–758 (His6-AspH315–758) was produced in E. coli BL21 (DE3) cells; made in house; host or cells: E. coli BL21 (DE3), pET-28a(+) vector
Sequence (Q12797 315-758): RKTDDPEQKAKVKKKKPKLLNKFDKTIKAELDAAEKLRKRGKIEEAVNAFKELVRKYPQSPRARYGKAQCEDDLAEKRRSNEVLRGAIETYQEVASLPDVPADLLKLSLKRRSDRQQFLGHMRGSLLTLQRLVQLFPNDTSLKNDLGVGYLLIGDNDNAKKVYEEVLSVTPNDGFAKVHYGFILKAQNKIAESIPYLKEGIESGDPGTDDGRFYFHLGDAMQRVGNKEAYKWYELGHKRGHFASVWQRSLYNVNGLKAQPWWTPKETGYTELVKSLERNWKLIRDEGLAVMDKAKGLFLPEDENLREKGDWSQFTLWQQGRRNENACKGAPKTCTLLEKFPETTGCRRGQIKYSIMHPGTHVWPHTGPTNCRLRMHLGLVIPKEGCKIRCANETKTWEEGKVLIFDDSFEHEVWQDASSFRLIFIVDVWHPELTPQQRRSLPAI
Test: SPE-MS AspH inhibition assay (LOPAC screen at fixed 20 μM and IC50 dose-response), hydroxylation of cyclic peptide hFX-CP101–119
Format: biochemical
Details: LOPAC Plate 4, compound at 20 uM, substrate conversion
Where a name gives a salt, the structure may show the parent alone.
Param threshold (40%) applies to % conversion; output Satisfied when value >= threshold, Not satisfied when value < threshold.

| Compound | Answer Label |
| --- | --- |
| O.O.O=C(Nc1ccc2c(c1)CCN(Cc1ncn[nH]1)C2)c1ccccc1-c1ccc(C(F)(F)F)cc1 [CP-346086 dihydrate] | Satisfied |
| Br.Oc1cc2c(c(Cl)c1O)CCNCC2c1ccccc1 (racemic) [(±)-6-Chloro-PB hydrobromide, reference compound] | Not satisfied |
| CN=c1nc(-c2ccccc2)n(-c2ccccc2)s1 [SCH-202676, reference compound] | Not satisfied |
| Cc1ccc(S(=O)(=O)N[C@@H](Cc2ccccc2)C(=O)CCl)cc1 | Not satisfied |
| O=C(CCCN1CCC2(CC1)C(=O)NCN2c1ccccc1)c1ccc(F)cc1 [Spiperone hydrochloride] | Not satisfied |

###

biological target: His6-AspH315–758 (human aspartate/asparagine-β-hydroxylase, AspH) (Homo sapiens, UniProt Q12797); construct: N-Terminally His6-tagged human AspH315–758 (His6-AspH315–758) was produced in E. coli BL21 (DE3) cells; made in house; host or cells: E. coli BL21 (DE3), pET-28a(+) vector; assay: SPE-MS AspH inhibition assay (LOPAC screen at fixed 20 μM and IC50 dose-response), hydroxylation of cyclic peptide hFX-CP101–119; format: biochemical; conditions: LOPAC Plate 4, compound at 20 uM; read-out: % inhibition
Counter-ions that a name gives are not always drawn.
Value Type: inhibition at 20 µM (%)

| Compound | Value Type | Display Unit | Measured Result |
| --- | --- | --- | --- |
| CC(CN(C)C)CN1c2ccccc2CCc2ccccc21 (stereo not drawn) [Trimipramine maleate] | inhibition at 20 µM | % | -15.1 |
| CCN(CC)CCNC(=O)c1cc(S(C)(=O)=O)ccc1OC [Tiapride hydrochloride] | inhibition at 20 µM | % | -2.16 |
| CNCCCC1c2ccccc2C=Cc2ccccc21 [Protriptyline hydrochloride] | inhibition at 20 µM | % | 20.8 |
| CCCN1C[C@H](CSC)C[C@@H]2c3cccc4[nH]cc(c34)C[C@H]21 [Pergolide methanesulfonate] | inhibition at 20 µM | % | -11.8 |
| CCCCCCNC(=O)n1cc(F)c(=O)[nH]c1=O | inhibition at 20 µM | % | -3.58 |
| O=C(CCCN1CCC2(CC1)C(=O)NCN2c1ccccc1)c1ccc(F)cc1 [Spiperone hydrochloride] | inhibition at 20 µM | % | 30.6 |

###

target: His6-AspH315–758 (human aspartate/asparagine-β-hydroxylase, AspH) (Homo sapiens, UniProt Q12797); construct: N-Terminally His6-tagged human AspH315–758 (His6-AspH315–758) was produced in E. coli BL21 (DE3) cells; made in house; host or cells: E. coli BL21 (DE3), pET-28a(+) vector; experiment: SPE-MS AspH inhibition assay (LOPAC screen at fixed 20 μM and IC50 dose-response), hydroxylation of cyclic peptide hFX-CP101–119; assay type: biochemical; conditions: plate 5 (Pfitzer), test compounds at fixed 20 μM; mean conversion DMSO 32.88
Param threshold (30%) applies to Plate 5 (% conversion); output true when value >= threshold, false when value < threshold.

| Smiles Structure | Answer Label |
| --- | --- |
| CCN(CC)CCCCNc1ncc2cc(-c3c(Cl)cccc3Cl)c(NC(=O)NC(C)(C)C)nc2n1 | true |
| CCCCN(CC)c1nc(C)nc2c1c(C)cn2-c1c(C)cc(C)cc1C | true |
| CCOc1ncc(S(=O)(=O)N2CCN(CC)CC2)cc1-c1nc2c(CC)n(CCOC)nc2c(=O)[nH]1 | true |
| CCOC(=O)N1c2ccc(C(F)(F)F)cc2[C@@H](N(Cc2cc(C(F)(F)F)cc(C(F)(F)F)c2)C(=O)OC)C[C@H]1CC | true |
| CC(=O)NC[C@H]1CN(c2ccc(N3CCOCC3)c(F)c2)C(=O)O1 | false |
| Cc1[nH]c(/C=C2\C(=O)Nc3ccc(S(=O)(=O)Cc4c(Cl)cccc4Cl)cc32)c(C)c1C(=O)N1CCC[C@@H]1CN1CCCC1 | true |
| NC(=O)c1noc([C@H](CCCC2CCCCC2)CC(=O)NO)n1 | false |
| O=C(Nc1cccnc1)N1CCC(Cc2cccc(Oc3ccc(C(F)(F)F)cn3)c2)CC1 | true |
| Cc1c(O)cccc1C(=O)N[C@@H](CSc1ccccc1)[C@H](O)CN1C[C@H]2CCCC[C@H]2C[C@H]1C(=O)NC(C)(C)C | false |
| COc1ccc2c(c1)CCC(c1ccccc1)=C2c1ccc(OCCN2CCCC2)cc1 | true |

###

biological target: His6-AspH315–758 (human aspartate/asparagine-β-hydroxylase, AspH) (Homo sapiens, UniProt Q12797); construct: N-Terminally His6-tagged human AspH315–758 (His6-AspH315–758) was produced in E. coli BL21 (DE3) cells; made in house; host or cells: E. coli BL21 (DE3), pET-28a(+) vector; test: SPE-MS AspH inhibition assay (LOPAC screen at fixed 20 μM and IC50 dose-response), hydroxylation of cyclic peptide hFX-CP101–119; type: biochemical; details: LOPAC compound at fixed 20 uM; substrate conversion, plate 1
Where a name gives a salt, the structure may show the parent alone.

| Molecule | Plate 1 (% conversion) |
| --- | --- |
| CCN(CC)CCCCCCCCOC(=O)c1cc(OC)c(OC)c(OC)c1.Cl [TMB-8 hydrochloride] | 40.78% |
| Oc1ccc(-c2nc(-c3ccncc3)c(-c3ccc(F)cc3)[nH]2)cc1 [SB 202190] | 37.64% |
| C[N+](C)(C)CC(=O)O [Betaine hydrochloride] | 37.36% |
| O=C1NC(=O)/C(=C/c2ccc(-c3ccc(F)cc3O)o2)S1 [AS-252424] | 39.00% |

###

Entries annotated with measured Plate 2 (% conversion)
molecular target: His6-AspH315–758 (human aspartate/asparagine-β-hydroxylase, AspH) (Homo sapiens); construct: N-Terminally His6-tagged human AspH315–758 (His6-AspH315–758) was produced in E. coli BL21 (DE3) cells; made in house; host or cells: E. coli BL21 (DE3), pET-28a(+) vector; test: SPE-MS AspH inhibition assay (LOPAC screen at fixed 20 μM and IC50 dose-response), hydroxylation of cyclic peptide hFX-CP101–119; format: biochemical; settings: LOPAC compound at 20uM, plate 2; conversion of substrate peptide
Where a name gives a salt, the structure may show the parent alone.
Value Type: Plate 2 (% conversion) (%)

| Molecule | Value Type | Measured Result |
| --- | --- | --- |
| Fc1ccc(C(c2ccc(F)cc2)N2CCN(C/C=C/c3ccccc3)CC2)cc1 [Flunarizine dihydrochloride] | Plate 2 (% conversion) | 46.32 |
| CCCCCCCCCCC/C=C\C(C)(C)/C=C\CCCC(=O)O | Plate 2 (% conversion) | 5.42 |
| Cl.c1ccc2c(c1)CCC[C@H]2Nc1nc2ccccc2[nH]1 [NS8593 hydrochloride] | Plate 2 (% conversion) | 39.37 |
| CC1=C(/C=C/C(C)=C/C=C/C(C)=C/C(=O)Nc2ccc(O)cc2)C(C)(C)CCC1 [Retinoic acid p-hydroxyanilide] | Plate 2 (% conversion) | 25.03 |
| N[C@@H](Cc1ccc(O)c(O)c1)C(=O)O [L-3,4-Dihydroxyphenylalanine] | Plate 2 (% conversion) | 10.03 |
| NNc1nncc2ccccc12 [Hydralazine hydrochloride] | Plate 2 (% conversion) | 38.20 |
| O=C1NCN(c2ccccc2)C12CCN(CCCC(c1ccc(F)cc1)c1ccc(F)cc1)CC2 | Plate 2 (% conversion) | 58.99 |
| Br.CCCN(CCC)C1CCc2ccc(O)cc2C1 (racemic) [(±)-7-Hydroxy-DPAT hydrobromide] | Plate 2 (% conversion) | 37.82 |
